Entries below carry reported GI50 on NCI-322M.
Answer shape: numeric part, then the unit.

>>> result("O=C(Cc1ccc(/C=C/C(=O)c2ncc[nH]2)cc1)Nc1ccc(F)cc1 [Compound 22]")
"3.35 µM"
>>> result("Cc1ccc(NC(=O)Cc2ccc(/C=C/C(=O)c3ncc[nH]3)cc2)cc1 [Compound 20]")
"6.06 µM"
>>> result("O=C(Cc1ccc(/C=C/C(=O)c2ncc[nH]2)cc1)Nc1ccc(C(F)(F)F)cc1 [Compound 24]")
"4.68 µM"

Moving on to the next molecule.
Q: Query for NCI-322M: what GI50 does the record show for Cn1ccnc1C(=O)/C=C/c1ccc(CC(=O)Nc2ccc(F)cc2)cc1 [Compound 28] ?
A: 2.07 µM
